All values here come from the NIST ThermoML archive (doi:10.1016/j.jct.2017.08.004).

test: molar heat capacity at constant pressure; settings: 293.15 K; 101.33 kPa; Crystal; Small sample (50 mg) DSC
assay endpoint: molar heat capacity at constant pressure (J/K/mol)
One number for each entry, in J/K/mol.

These recorded examples may help you get a feel for the data.
Fill in: molar heat capacity at constant pressure of OC[C@H](O)C(O)[C@@H](O)CO [L-(-)-arabitol] is ___
203.3

Fill in: molar heat capacity at constant pressure of OC[C@@H](O)C(O)[C@H](O)CO [D-arabitol] is ___
197.3

Others:
Fill in: molar heat capacity at constant pressure of OC[C@@H](O)[C@H](O)[C@@H](O)CO [xylitol] is ___
205.39

* * *

test: molar heat capacity at constant pressure; settings: 291.15 K; 101.33 kPa; Crystal; Small sample (50 mg) DSC
assay endpoint: molar heat capacity at constant pressure (J/K/mol)
Numbers only, in J/K/mol.

These recorded examples may help you get a feel for the data.
Fill in: molar heat capacity at constant pressure of OC[C@H](O)C(O)[C@@H](O)CO [L-(-)-arabitol] is ___
202.11

Fill in: molar heat capacity at constant pressure of OC[C@@H](O)[C@H](O)[C@@H](O)CO is ___
204

# ---- query compound ----
Fill in: molar heat capacity at constant pressure of OC[C@@H](O)C(O)[C@H](O)CO is ___
195.84

* * *

conditions: 305 K; 101.33 kPa; Crystal; Small sample (50 mg) DSC
assay endpoint: molar entropy (J/K/mol)
Give bare numbers, in J/K/mol.

Quick one: give me molar entropy for each item below, same order please.
1. O[C@H]1[C@H](O)[C@@H](O)[C@H](O)[C@@H](O)[C@H]1O [cis-1,2,3,5-trans-4,6-cyclohexanehexol]
2. OC[C@@H](O)[C@H](O)[C@@H](O)CO [xylitol]
3. OC[C@@H](O)C(O)[C@H](O)CO [D-arabitol]

203.13
202.93
204.36

* * *

Hi there, I'd appreciate the recorded molar entropy for every entry that follows.
settings: 230 K; 101.33 kPa; Crystal; relaxation calorimetry
Numbers after ± are expanded uncertainties.
Write the quantity with the unit trailing the number.

Quick one: give me molar entropy for each item below, same order please.
1. OC[C@@H](O)C(O)[C@H](O)CO
2. OC[C@@H](O)[C@@H](O)[C@H](O)[C@H](O)CO
3. OC[C@@H](O)[C@@H](O)CO

1. 153.36 ± 14 J/K/mol
2. 173.95 ± 16 J/K/mol
3. 127.36 ± 12 J/K/mol
